# STUDY_TARGET: T1, FLAG-hPSMA, extracellular domain protein of hPSMA with a FLAG-tag at the N-terminus (human, UniProt Q04609 44-750)
# T1 construct: also called FLAG-PSMA; soluble hPSMA antigen
# T1 sequence (Q04609 other isoform, or with tags, fused parts or gaps): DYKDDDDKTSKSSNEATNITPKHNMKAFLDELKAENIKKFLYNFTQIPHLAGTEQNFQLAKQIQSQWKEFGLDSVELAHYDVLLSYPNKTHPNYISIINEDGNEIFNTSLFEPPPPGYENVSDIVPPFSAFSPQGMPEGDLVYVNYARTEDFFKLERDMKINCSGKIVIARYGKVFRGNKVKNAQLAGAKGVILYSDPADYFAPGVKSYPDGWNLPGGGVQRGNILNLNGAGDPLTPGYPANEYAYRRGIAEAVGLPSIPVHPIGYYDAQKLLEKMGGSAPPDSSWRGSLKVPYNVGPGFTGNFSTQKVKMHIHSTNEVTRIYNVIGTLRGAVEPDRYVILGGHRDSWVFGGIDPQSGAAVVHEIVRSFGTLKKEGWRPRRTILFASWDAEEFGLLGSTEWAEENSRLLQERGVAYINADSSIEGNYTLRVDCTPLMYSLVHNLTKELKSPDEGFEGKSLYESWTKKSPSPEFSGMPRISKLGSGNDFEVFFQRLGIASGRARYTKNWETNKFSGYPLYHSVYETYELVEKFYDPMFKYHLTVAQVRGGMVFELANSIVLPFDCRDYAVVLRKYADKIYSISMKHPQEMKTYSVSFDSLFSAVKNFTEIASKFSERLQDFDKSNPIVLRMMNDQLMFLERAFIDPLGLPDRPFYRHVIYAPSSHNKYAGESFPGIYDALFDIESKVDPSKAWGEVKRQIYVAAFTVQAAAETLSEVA
# TEST_METHOD_NOTES: phage ELISA, scFv phage clone on immobilized FLAG-PSMA

# BINDER, binding result
measured = [
    ("PI105 phage clone (scFv displayed on M13 phage) (scFv, V domains shown, Tested as an scFv on M13 phage (phagemid pCANTAB 5E); not shown: scFv linker, domain order, tag and M13 coat-protein fusion of phagemid pCANTAB 5E; copies: 1 + 1) VH: EVQLVQSGAEVKKPGASVKVSCKASGYTFTTYDINWVRQATGQGLEWLGWMNPNNGYTGYAQKFQGRVTMTRNTSIGTAYMELNSLRSEDTAVYYCARTNWVYWYFDLWGRGTLVTVSS VL: EIVLTQSPATLSLSPGERATLSCRASQSVSSFLAWYQQKPGQAPRLLIYDASNRATGIPARFSGSGSGTDFTLTISSLEPEDFAVYYCQQRSNWPLTFGPGTKVDIK", "binds"),
    ("PI101 phage clone (scFv displayed on M13 phage) (scFv, V domains shown, Tested as an scFv on M13 phage (phagemid pCANTAB 5E)) VH: EVQLVQSGAEVKKPGASVKVSCKASGYNLATYDINWVRQATGQGLEWMGWMNPNSGYTGYAQKFQGRVTMTRDTSINTAYMELSSLRSEDTAVYYCARTNWVYWYFDLWGRGTLVTVSS VL: EIVLTQSPATLSLSPGERATLSCRASQSVSSFLAWYQQKPGQAPRLLIYDASNRATGIPARFSGSGSGTDFTLTISSLEPEDFAVYYCQQRSNWPLTFGPGTKVDIKR", "binds"),
    ("PI115 phage clone (scFv displayed on M13 phage) (scFv, V domains shown, Tested as an scFv on M13 phage (phagemid pCANTAB 5E)) VH: EVQLVQSGAEVKKPGASVKVSCKASGYTFTTYDINWVRQATGQGLEWMGWMNPNNGYTGYAQKFQGRVTMTRNTSISTAYMELSSLRSEDTAVYYCARTNWVYWYFDLWGRGTLVTVSS VL: EIVLTQSPATLSLSPGERATLSCRASQSVSSFLAWYQQKPGQAPRLLIYDASNRATGIPARFSGSGSGTDFTLTISSLEPEDFAVYYCQQRSNWPLTFGPGTKVDIKR", "binds"),
]
